- testTarget: human CD137 expressed on DO11.10 cells (DO11.10-hCD137) (human, UniProt Q07011 24-255)
- Sequence (Q07011 24-255): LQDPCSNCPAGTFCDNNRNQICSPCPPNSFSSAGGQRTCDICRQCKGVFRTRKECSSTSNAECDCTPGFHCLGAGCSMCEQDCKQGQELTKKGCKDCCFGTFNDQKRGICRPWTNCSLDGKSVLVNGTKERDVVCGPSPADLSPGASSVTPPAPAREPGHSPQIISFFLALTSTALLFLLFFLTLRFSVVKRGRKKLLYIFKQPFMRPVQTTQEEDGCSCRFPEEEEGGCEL
- test: cell-based or functional assay
observedProperty: EC50 of mIL-2 release, DO11.10-hCD137 assay, crosslinked (nM)

binder: FS20-22-49AA/FS30-10-3 (bispecific antibody, human IgG1, kappa, L234A L235A, V domains shown, IgG1 with LALA; also called OX40/CD137 mAb^2) VH: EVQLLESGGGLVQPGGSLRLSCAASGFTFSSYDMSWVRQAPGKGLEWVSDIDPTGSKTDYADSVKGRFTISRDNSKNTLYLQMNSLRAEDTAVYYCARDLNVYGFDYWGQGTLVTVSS VL: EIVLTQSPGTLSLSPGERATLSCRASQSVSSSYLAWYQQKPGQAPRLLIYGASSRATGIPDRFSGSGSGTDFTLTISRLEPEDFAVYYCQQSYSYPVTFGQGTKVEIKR
measurementUnit: nM
reportedValue: 6.1
